Origin of values: ChEMBL document CHEMBL1144914

Tested on: CCRF-CEM
Test: Cytotoxicity in human leukemic CCRF-CEM cells.
Assay type: functional, cell-based
readout: IC50 (nM)
One number for each entry, in nM.

List reported IC50 for each of these compounds:
1. O=C(NCCN1CCOCC1)c1cccc2c(NCCCCCCNc3c4ccccc4nc4c(C(=O)NCCN5CCOCC5)cccc34)c3ccccc3nc12
2. O=C(NCCN1CCOCC1)c1cccc2c(NCCN3CCN(CCNc4c5ccccc5nc5c(C(=O)NCCN6CCOCC6)cccc45)CC3)c3ccccc3nc12
3. CN(C)CCNC(=O)c1cccc2c(NCCN3CCN(CCNc4c5ccccc5nc5c(C(=O)NCCN(C)C)cccc45)CC3)c3ccccc3nc12
4. CN(C)CCNC(=O)c1cccc2c(NCCCCNCCCNc3c4ccccc4nc4c(C(=O)NCCN(C)C)cccc34)c3ccccc3nc12
5. CC[C@@]1(O)C(=O)OCc2c1cc1n(c2=O)Cc2cc3ccccc3nc2-1
6. CS[C@H]1SC[C@H]2C(=O)N(C)[C@@H](C(C)C)C(=O)OC[C@@H](NC(=O)c3cnc4ccccc4n3)C(=O)N[C@@H](C)C(=O)N(C)[C@@H]1C(=O)N(C)[C@@H](C(C)C)C(=O)OC[C@@H](NC(=O)c1cnc3ccccc3n1)C(=O)N[C@@H](C)C(=O)N2C
7. CN(C)CCNC(=O)c1cccc2c(NCCCCCCNc3c4ccccc4nc4c(C(=O)NCCN(C)C)cccc34)c3ccccc3nc12

710
290
63
250
5.3
0.5
87
